Hey, just so you know, these numbers are from PubChem BioAssay (NCI).

- System: HT29 colon
- experiment.description: NCI tumour cell line growth inhibition, 48 h

molecule	TGI
CC(C)C1SCc2nc3ccccc3n21 (stereo not given)	> 100 µM
Nc1ccc(Nc2c3ccccc3nc3ccccc23)cc1	> 10 µM
O=C1Oc2ccccc2C(=O)/C1=C/N1C(=O)N/C(=C\c2cccc(O)c2)C1=O	> 100 µM
Cc1nc2ccccc2c(=O)n1NC(=S)Nc1cccc(Cl)c1	> 100 µM
O=C(O)C1=NNC(C(=O)O)=NN1	> 100 µM

###

- Test system: SNB-19 CNS
- experiment.description: NCI tumour cell line growth inhibition, 48 h; in the data active = GI50 below about 0.43 µM; inactive = the rest
Classes used: active, inactive

molecule	label.value
O=C(OCC1OC(OC(=O)c2cc(O)c(O)c(OC(=O)c3cc(O)c(O)c(O)c3)c2)C(OC(=O)c2cc(O)c(O)c(OC(=O)c3cc(O)c(O)c(O)c3)c2)C(OC(=O)c2cc(O)c(O)c(OC(=O)c3cc(O)c(O)c(O)c3)c2)C1OC(=O)c1cc(O)c(O)c(OC(=O)c2cc(O)c(O)c(O)c2)c1)c1cc(O)c(O)c(OC(=O)c2cc(O)c(O)c(O)c2)c1 (stereo not drawn)	inactive
CNNC(=N\S(=O)(=O)c1cc(C(=O)Nc2ccc(Cl)cc2)c(Cl)cc1SCc1ccccc1)/N=C/c1ccc([N+](=O)[O-])s1	inactive
Cc1ccc(N=Nc2c(N)nn(-c3ccccc3)c2N)cc1	inactive
Nc1nc(N)c2c(ccc3nccc32)[nH]1	inactive
O=c1oc2ccc(Cl)cc2c(=O)n1-c1cc(C(F)(F)F)cc(C(F)(F)F)c1	active
O=C(O)C[O][Sb][O]CC(=O)O	inactive
Nc1c(C(=O)c2cccc(CCC3(O)CCCC3)c2)cnn1-c1ccc(F)cc1	inactive
C#C[C@@]1(O)[C@@H](CO)O[C@@H](n2ccc3c(N)ncnc32)[C@@H]1O	inactive
CCOC(=O)c1ccc(Nc2sc(C(=O)c3cccc([N+](=O)[O-])c3)c(N)c2C#N)cc1	active
N#Cc1cccc(/C=C(/C(=O)c2ccccc2)c2ccccc2)c1	inactive
O=C1c2cc3c(cc2[C@@H]2[C@H]1c1ccc([N+](=O)[O-])cc1C(=O)N2CCCCl)OCO3	active
CCN(CC)CCCOc1cc(O)c2c(=O)cc(-c3ccccc3)oc2c1	inactive
CC[C@H](C)[C@H](NC(=O)Nc1ccccc1)C(=O)N(C)[C@H](C[C@@H](OC(C)=O)c1nc(C(=O)N[C@@H](Cc2ccccc2)C[C@H](C)C(=O)OC)cs1)C(C)C	inactive

###

Below is a list of entries, each paired with its recorded TGI value.
- Test system: HCT-15 colon
- experiment.description: NCI tumour cell line growth inhibition, 48 h
measured.property: TGI

compound	test.value
CC[C@H](C)[C@H](NC(=O)Nc1ccccc1)C(=O)N(C)[C@H](C[C@@H](OC(C)=O)c1nc(C(=O)N[C@@H](Cc2ccccc2)C[C@H](C)C(=O)OC)cs1)C(C)C	> 100 µM
OCCNc1ncnc2c1ncn2C1OC(CO)C(O)C1O (stereo not drawn)	> 100 µM
CC(C)=CCC[C@](C)(O[C@@H]1O[C@H](CO)[C@@H](O)[C@H](O)[C@H]1O)[C@H]1CC[C@]2(C)[C@@H]1[C@H](O)C[C@@H]1[C@@]3(C)CC[C@H](O)C(C)(C)[C@@H]3[C@@H](O[C@@H]3O[C@H](CO)[C@@H](O)[C@H](O)[C@H]3O)C[C@]12C	> 100 µM
COc1cc2c(cc1Oc1ccc(OC)c3c1CC1c4c(cc(OC)c(OC)c4-3)CCN1C)CC1c3c(cc(OC)c(OC)c3-2)CCN1C (stereo not drawn)	6.93 µM
O=C(O)c1nc2ccccc2nc1Nc1ccc(F)cc1	89.8 µM
COc1ccc(/C=C2\SC(c3ccc(OC)cc3)N(NC(=O)Cc3ccccc3)C2=O)cc1 (stereo not drawn)	> 100 µM
O=C1Nc2cc([N+](=O)[O-])ccc2C(=O)N2CCC[C@@H]12	> 100 µM
N#Cc1c(N)c2c(c(-c3ccccc3)c1-c1ccccc1)C(=O)N(NC(=O)c1ccccc1)C2=O	> 100 µM
O=C(Nc1nnc(-c2c(Cl)c(Cl)c(Cl)c(Cl)c2-c2nc3cc(C(=O)c4ccccc4)ccc3[nH]2)o1)c1ccccc1	36.7 µM
CN1C(=O)c2c(c3c4ccccc4n(C4OC(CO)C(O)C(O)C4O)c3c3[nH]c4ccccc4c23)C1=O (stereo not drawn)	17.4 µM
CCN1C(=O)c2ccccc2C1(O)c1ccc(Cl)cc1 (stereo not drawn)	> 100 µM
O=c1oc2ccc(Cl)cc2c(=O)n1-c1cc(C(F)(F)F)cc(C(F)(F)F)c1	1.78 µM
COC(=O)c1c2c(c(-c3ccccc3)c3c1-c1nc(Cl)ccc1CC3)CCc1ccc(Cl)nc1-2	> 100 µM
